Test system: SK-OV-3
Experiment: Cytotoxicity against SKOV3 cells after 48 hrs by XTT assay
Type: functional, cell-based, Homo sapiens
IC50 reference

CCOC(=O)CO/N=C1/c2ccncc2C(=O)c2c1ccn2CCN(C)C
> 12 µmol

The record that follows has no IC50 shown yet.
Look up IC50: CN(C)CCn1ccc2c1C(=O)c1cnccc1/C2=N/O
> 12 µmol
